Where do the numbers come from? From ChEMBL document CHEMBL5154636.

assay: Half life in Sprague-Dawley rat at 20 mg/kg, po measured upto 24 hrs by LC-MS/MS analysis; type: ADME, organism-based; conditions: in vivo
ENDPOINT LABEL: half-life (min)
Report the figure in min without appending any unit label.

Q: Tell me the measured half-life of `COc1cc(/C=C/c2ccc(OCCCCCCC(=O)NO)cc2)cc(OC)c1` , please.
A: 52.8

###

molecular target: Protein deacetylase HDAC6 (Homo sapiens, UniProt Q9UBN7); assay: Inhibition of recombinant human HDAC6 using RHKK(Ac)AMC fluorogenic peptide as substrate by fluorescence assay
Sequence (Q9UBN7 whole entry): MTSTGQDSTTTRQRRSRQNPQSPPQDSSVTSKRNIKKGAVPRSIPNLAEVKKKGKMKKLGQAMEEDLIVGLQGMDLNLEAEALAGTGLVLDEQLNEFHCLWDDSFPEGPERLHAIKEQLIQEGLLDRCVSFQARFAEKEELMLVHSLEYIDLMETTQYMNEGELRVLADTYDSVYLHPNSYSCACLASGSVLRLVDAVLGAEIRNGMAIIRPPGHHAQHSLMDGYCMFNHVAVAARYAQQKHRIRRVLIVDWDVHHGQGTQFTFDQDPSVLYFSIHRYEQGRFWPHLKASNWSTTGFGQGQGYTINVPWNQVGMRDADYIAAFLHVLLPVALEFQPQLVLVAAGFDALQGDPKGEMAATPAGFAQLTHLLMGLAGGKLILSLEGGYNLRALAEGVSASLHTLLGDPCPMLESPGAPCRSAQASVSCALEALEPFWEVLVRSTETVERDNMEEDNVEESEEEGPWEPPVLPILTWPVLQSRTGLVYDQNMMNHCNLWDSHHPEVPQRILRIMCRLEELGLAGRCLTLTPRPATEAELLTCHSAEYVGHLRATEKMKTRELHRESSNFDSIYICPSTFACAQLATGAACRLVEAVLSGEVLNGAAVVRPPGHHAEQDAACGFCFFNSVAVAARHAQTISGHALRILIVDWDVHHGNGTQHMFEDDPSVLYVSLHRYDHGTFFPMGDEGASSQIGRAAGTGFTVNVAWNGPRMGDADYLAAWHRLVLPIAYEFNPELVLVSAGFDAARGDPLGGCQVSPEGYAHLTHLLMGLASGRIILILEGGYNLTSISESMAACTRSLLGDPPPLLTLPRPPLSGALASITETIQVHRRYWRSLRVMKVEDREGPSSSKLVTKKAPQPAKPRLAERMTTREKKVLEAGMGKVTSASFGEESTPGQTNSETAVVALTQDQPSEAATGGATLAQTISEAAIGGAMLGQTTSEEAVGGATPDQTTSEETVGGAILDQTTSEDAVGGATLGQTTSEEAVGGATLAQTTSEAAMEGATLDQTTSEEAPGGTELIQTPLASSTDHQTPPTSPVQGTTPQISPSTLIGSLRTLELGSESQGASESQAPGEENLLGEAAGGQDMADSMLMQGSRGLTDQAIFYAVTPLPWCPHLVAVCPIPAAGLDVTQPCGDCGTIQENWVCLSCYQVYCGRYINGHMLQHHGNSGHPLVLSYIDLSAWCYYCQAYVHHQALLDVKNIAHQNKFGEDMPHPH
ENDPOINT LABEL: IC50 (µM)
Report the figure in µM without appending any unit label.

Q: Tell me the measured IC50 of `COc1cc(/C=C/c2ccc(OCCCCCCC(=O)NO)cc2)cc(OC)c1` , please.
A: 0.104
